Taken from ChEMBL document CHEMBL5137017.

Experiment: Lipophilicity, logD of compound at pH 6.5
Format: physicochemical
Conditions: buffer
readout: logD

Ask: Using the record for "C[C@H]1OC(=O)N(c2nc(-c3cnc(N)nc3C(F)(F)F)cc(N3CCOCC3)n2)[C@H]1CO" , report its logD.
Result: 2

====

Experiment: Tmax in Beagle dog at 5.4 mg/kg, po measured upto 24 hrs using PVP-ASD form of sample by LC-MS/MS analysis
Format: ADME, organism-based, Canis lupus familiaris
Details: in vivo
readout: Tmax (h)
Field format: number, assumed h, no unit text.

Ask: Using the record for "C[C@H]1OC(=O)N(c2nc(-c3cnc(N)nc3C(F)(F)F)cc(N3CCOCC3)n2)[C@H]1CO" , report its Tmax.
Result: 2
